Reported LDH release cytotoxicity values are given for each entry in this list.
# Test system: HepaRG
# assay details: LDH release cytotoxicity, % of total lysis control; higher = more cytotoxic
# condition context: 100 µM; 48 h
Counter-ions that a name gives are not always drawn.
The response must be a number in % with no trailing unit.

CNC(C)=O [N-Methylacetamide]
34
CCOC(=O)CC(O)(CC(=O)OCC)C(=O)OCC [Triethyl citrate]
1.14
CCCOCC(=Nc1ccc(Cl)cc1C(F)(F)F)n1ccnc1 [Triflumizole]
0.335
COC(=O)NC(=S)Nc1ccccc1NC(=S)NC(=O)OC [Thiophanate-methyl]
8.47
OCCC(F)(F)C(F)(F)C(F)(F)C(F)(F)C(F)(F)C(F)(F)F [6:2 Fluorotelomer alcohol]
-0.148
O=C1OC(=O)C2C3C=CC(C3)C12 (stereo unspecified) [2-Norbornene-5,6-dicarboxylic anhydride]
1.32
CC(Oc1ccc(CNC(=O)c2cccnc2Oc2ccc3c(c2)OCO3)c(F)c1)C(=O)O (stereo unspecified)
-0.624
CNC(=O)ON=CC(C)(C)SC [Aldicarb]
-0.341
c1ccc2ccccc2c1 [Naphthalene]
2.74
Cc1ccc(Cl)cc1 [4-Chlorotoluene]
1.18

Prompt: Item CS(=O)(=O)c1cc(C(F)(F)F)ccc1C(=O)c1cnoc1C1CC1 [Isoxaflutole] has what recorded LDH release cytotoxicity?
Completion: 0.934

Prompt: Item Nc1c(Cl)c(F)nc(OCC(=O)O)c1Cl [Fluroxypyr] has what recorded LDH release cytotoxicity?
Completion: 1.75

Prompt: Item `CC1(C)NC(=O)N(c2ccc([N+](=O)[O-])c(C(F)(F)F)c2)C1=O` has what recorded LDH release cytotoxicity?
Completion: -0.93

Prompt: Item O=C(O)C1C(C(=O)O)C2(Cl)C(Cl)=C(Cl)C1(Cl)C2(Cl)Cl (stereo unspecified) [Chlorendic acid] has what recorded LDH release cytotoxicity?
Completion: 0.638

Prompt: Item Cc1cc(C)c(O)c(C)c1 [2,4,6-Trimethylphenol] has what recorded LDH release cytotoxicity?
Completion: 0.371

Prompt: Item Nc1ccc(Cl)cc1 [4-Chloroaniline] has what recorded LDH release cytotoxicity?
Completion: 0.243

---

# Tested on: HepaRG
# assay details: LDH release cytotoxicity, % of total lysis control; higher = more cytotoxic
# condition context: 0.03162 µM; 48 h
Reported LDH release cytotoxicity values are given for each entry in this list.
The response must be a number in % with no trailing unit.

// solved cases for LDH release cytotoxicity follow
CS(=O)(=O)NC(=O)c1cc(Oc2ccc(C(F)(F)F)cc2Cl)ccc1[N+](=O)[O-]
-1.12
OC(c1ccc(Cl)cc1)(c1ccc(Cl)cc1)C(Cl)(Cl)Cl
-4.47
CCCCCCC(C=O)=Cc1ccccc1
-1.15
N=C(Nc1ccccc1)Nc1ccccc1
-0.803
COc1cc(C=O)cc2c1C(COC(N)=O)C1(OC(C)=O)ON2CC2C1N2C(C)=O (centres undefined)
-0.71
O=P(Oc1ccccc1)(Oc1ccccc1)Oc1ccccc1 [Triphenyl phosphate]
0.948
CC12C=CC(=O)C=C1CCC1C3CC(O)C(O)(C(=O)CO)C3(C)CC(O)C12F (centres undefined)
-1.85
CCN(CC)CCO
-0.085

Moving on to another compound below.
Prompt: Identify the measured LDH release cytotoxicity of `NCc1cccc(C2CCN(C(=O)c3ccc(C#Cc4ccccc4F)o3)CC2)c1` for HepaRG.
Completion: 0.161
